Where do the numbers come from? From patent US20140178332A1.

Measured Kd, listed per entry.
Biological target: T1, recombinant purified human IL-12 p70 (human, UniProt P29459 23-219)
T1 construct: Disulfide-linked heterodimer of p35 and p40; also called hIL-12; Hu IL-12
T1 sequence 1: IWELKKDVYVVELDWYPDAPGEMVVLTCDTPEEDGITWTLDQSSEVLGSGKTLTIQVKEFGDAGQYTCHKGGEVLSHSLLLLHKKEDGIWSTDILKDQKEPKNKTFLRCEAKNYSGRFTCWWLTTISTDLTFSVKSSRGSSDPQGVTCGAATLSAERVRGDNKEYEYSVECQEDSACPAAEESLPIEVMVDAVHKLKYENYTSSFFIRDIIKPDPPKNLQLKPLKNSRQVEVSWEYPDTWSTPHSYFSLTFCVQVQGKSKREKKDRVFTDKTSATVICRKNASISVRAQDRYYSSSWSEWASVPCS
T1 sequence 2: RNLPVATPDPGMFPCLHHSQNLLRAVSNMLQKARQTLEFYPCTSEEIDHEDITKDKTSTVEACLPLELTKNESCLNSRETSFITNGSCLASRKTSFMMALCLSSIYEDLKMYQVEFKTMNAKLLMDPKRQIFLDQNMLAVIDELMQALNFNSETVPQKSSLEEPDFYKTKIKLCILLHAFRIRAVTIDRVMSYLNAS
Assay: SPR (BIAcore) as in Example 1.1.B
Could you kindly put the unit after your number?

anti-IL-12p40 hybrid antibody 1A6.4 (antibody, human IgG1, kappa, L234A L235A, V domains shown, Hybrid: chimeric murine H chain paired with CDR-grafted L chain) VH: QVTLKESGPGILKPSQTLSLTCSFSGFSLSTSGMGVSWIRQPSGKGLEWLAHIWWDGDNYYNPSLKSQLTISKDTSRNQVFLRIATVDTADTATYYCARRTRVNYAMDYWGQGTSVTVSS VL: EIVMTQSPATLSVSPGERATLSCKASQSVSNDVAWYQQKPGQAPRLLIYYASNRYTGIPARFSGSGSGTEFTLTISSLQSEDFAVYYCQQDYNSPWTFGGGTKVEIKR    1 nM
anti-IL-12p40 hybrid antibody 1D4.5 (antibody, human IgG1, kappa, L234A L235A, V domains shown) VH: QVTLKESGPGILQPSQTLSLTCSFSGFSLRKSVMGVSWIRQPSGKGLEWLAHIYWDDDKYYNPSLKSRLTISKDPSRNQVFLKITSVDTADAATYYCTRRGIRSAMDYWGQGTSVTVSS VL: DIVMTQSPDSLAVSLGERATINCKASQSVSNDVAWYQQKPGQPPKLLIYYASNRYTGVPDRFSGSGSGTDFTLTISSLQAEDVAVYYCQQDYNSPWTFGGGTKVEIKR    0.11 nM

Assign Kd to the following record: anti-IL-12p40 hybrid antibody 1A6.3 (antibody, human IgG1, kappa, L234A L235A, V domains shown) VH: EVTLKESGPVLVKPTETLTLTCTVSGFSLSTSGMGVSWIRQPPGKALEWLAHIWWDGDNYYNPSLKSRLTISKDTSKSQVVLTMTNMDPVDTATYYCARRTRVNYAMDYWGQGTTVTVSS VL: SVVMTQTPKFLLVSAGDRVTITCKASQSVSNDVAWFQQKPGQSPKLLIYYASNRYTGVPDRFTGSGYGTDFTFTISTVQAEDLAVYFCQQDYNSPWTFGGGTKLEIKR
0.14 nM

Assign Kd to the following record: anti-IL-12p40 hybrid antibody 1D4.4 (antibody, human IgG1, kappa, L234A L235A, V domains shown) VH: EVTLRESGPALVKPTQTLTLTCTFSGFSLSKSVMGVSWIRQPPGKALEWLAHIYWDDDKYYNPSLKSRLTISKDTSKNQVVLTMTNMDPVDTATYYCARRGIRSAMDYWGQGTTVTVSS VL: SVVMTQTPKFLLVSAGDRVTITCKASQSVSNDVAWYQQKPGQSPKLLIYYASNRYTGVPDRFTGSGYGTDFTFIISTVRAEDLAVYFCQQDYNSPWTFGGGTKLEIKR
0.074 nM
